This collection of values is drawn from paper PMC7175367.

Molecular target: NS3 domain (Hepatitis C virus genotype 4a)
Construct: NS3 protease domain 1–181 aa plus an N-terminal T7 tag and C-terminal His tag; made in house; host or cells: E. coli Rosetta (DE3) pLysS, vector pET-3a
Assay: Differential static light scattering (DSLS) binding test
Design: species or system HCV genotype 4a
Settings: NS3 domain 15.0 µM with equimolar compound; 25.0 to 85.0 °C; n = 3
readout_kind: ΔTagg (liganded protein − free protein) (°C)
Reply with just the number (in °C).

Write down the reported ΔTagg (liganded protein − free protein) (system: NS3 domain (Hepatitis C virus genotype 4a)) of CCCCCNC(=O)c1ncc(C(=O)NCC(=O)NC)[nH]1 [MOC-11]
0.82

Write down the reported ΔTagg (liganded protein − free protein) (system: NS3 domain (Hepatitis C virus genotype 4a)) of CCCCCCNC(=O)c1ncc(C(=O)NCCCCNC(=N)N)[nH]1 [MOC-24]
0.60

Write down the reported ΔTagg (liganded protein − free protein) (system: NS3 domain (Hepatitis C virus genotype 4a)) of CCCCCNC(=O)c1ncc(C(=O)NCCCCNC(=N)N)[nH]1 [MOC-23]
0.32

* * *

Could you please report measured melting point for the items listed next?

Consider the compound CCCCCNC(=O)c1ncc(C(=O)NCC(=O)NC)[nH]1 [MOC-11] and give its recorded melting point.
87 °C

Consider the compound CC(C)CCCCCNC(=O)c1ncc(C(=O)NCCCCNC(=N)N)[nH]1 [MOC-31] and give its recorded melting point.
83 to 84 °C

Consider the compound N=C(N)NCCCCNC(=O)c1cnc(C(=O)NCCCOc2ccccc2)[nH]1 [MOC-29] and give its recorded melting point.
135 to 138 °C

Consider the compound N=C(N)NCCCCNC(=O)c1cnc(C(=O)NCCOc2ccccc2)[nH]1 [MOC-28] and give its recorded melting point.
137 to 139 °C

* * *

Target: NS3 (NS4A21`–33` binding site) (Hepatitis C virus genotype 4a, UniProt O39929)
Construct: NS3 protease domain 1–181 aa plus an N-terminal T7 tag and C-terminal His tag
Test: Fluorescence anisotropy (FA) competition assay with FITC-NS4A21`–33`
Settings: Competition IC50 ± SEM, displacement of FITC-NS4A21`–33` (0.10 µM) from NS3; 480/520 nm; compounds 150 to 0.292 µM
Could you please report measured pIC50 for the items listed next?
Hey, just a heads up that pIC50 is the negative log base 10 of the concentration in molar.

Write down the reported pIC50 (system: NS3 (NS4A21`–33` binding site) (Hepatitis C virus genotype 4a, UniProt O39929)) of CCCCCNC(=O)c1ncc(C(=O)NCC(=O)NC)[nH]1
4.76

Write down the reported pIC50 (system: NS3 (NS4A21`–33` binding site) (Hepatitis C virus genotype 4a, UniProt O39929)) of CC(C)OCCCCNC(=O)c1ncc(C(=O)NCCCCNC(=N)N)[nH]1
4.55

Write down the reported pIC50 (system: NS3 (NS4A21`–33` binding site) (Hepatitis C virus genotype 4a, UniProt O39929)) of CC(C)CCCCCNC(=O)c1ncc(C(=O)NCCCCNC(=N)N)[nH]1
4.92

Write down the reported pIC50 (system: NS3 (NS4A21`–33` binding site) (Hepatitis C virus genotype 4a, UniProt O39929)) of CCCCCNC(=O)c1ncc(C(=O)NCCCCNC(=N)N)[nH]1
5.33

Write down the reported pIC50 (system: NS3 (NS4A21`–33` binding site) (Hepatitis C virus genotype 4a, UniProt O39929)) of CCCCCCNC(=O)c1ncc(C(=O)NCc2ccccn2)[nH]1
4.39
